Target: T1, Brn2 DNA-binding domain (BD-Brn2) (Mus musculus (B6), UniProt P31360 336-435)
T1 sequence: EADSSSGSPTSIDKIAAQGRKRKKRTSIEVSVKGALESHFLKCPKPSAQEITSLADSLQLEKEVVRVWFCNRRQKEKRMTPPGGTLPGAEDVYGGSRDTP
Assay: EMSA; 10% glycerol, 20 mM HEPES pH 7.8, 45 mM KCl, 10 mM NaCl, 1 mM EDTA, 1 mM DTT, 0.2 ug/uL BSA, 0.1% NP-40, 50 ng poly-dIdC; 20 ng each GST protein; room temperature 30 min (heterodimers 4 C); 6% PAGE 0.25x TBE
Details: protein: recombinant; tags: GST (N-terminal, pGEX-6P-1); label: 32P-dCTP fill-in of the 5' (dG)5 overhangs of both strands (Methods; control probes are given with GGG)
Result type: binding result

1) 24 (dsDNA) DNA 1: GGGGGCTTGTATCTTTGTATGTTCACAGAAAGCAAAGTAGCGTGGCCCCC DNA 2: GGGGGCCACGCTACTTTGCTTTCTGTGAACATACAAAGATACAAGCCCCC : no binding
2) 126 (dsDNA) DNA 1: GGGGGAATGTTGTCATAATTGAAAAAGACAAAGCACTAATCCCCC DNA 2: GGGGGATTAGTGCTTTGTCTTTTTCAATTATGACAACATTCCCCC : binds
3) 93 (dsDNA) DNA 1: GGGGGATAGAGGCACAAAAATTTCCAGAGACTGGCCCCC DNA 2: GGGGGCCAGTCTCTGGAAATTTTTGTGCCTCTATCCCCC : no binding
4) 52 (dsDNA) DNA 1: GGGGGGGGGCAGCACAAATATTTCTGTGAATGTACCCCC DNA 2: GGGGGTACATTCACAGAAATATTTGTGCTGCCCCCCCCC : no binding
5) 119 (dsDNA) DNA 1: GGGGGCCGATCGCTTTGTTCTACATTTTATGTTCTATCCCCC DNA 2: GGGGGATAGAACATAAAATGTAGAACAAAGCGATCGGCCCCC : no binding
6) 125 (dsDNA) DNA 1: GGGGGGGGATGCAATTGTCAGTCACCTTTCTTGAGCCTGTGGGACCCCC DNA 2: GGGGGTCCCACAGGCTCAAGAAAGGTGACTGACAATTGCATCCCCCCCC : binds

Reference source for all entries: paper PMC3713010
